B1: EHEE_rd2_0601 (parent)
chain: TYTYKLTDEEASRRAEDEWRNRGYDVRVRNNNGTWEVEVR

Variants of: B1
Assay: folding stability dG (cDNA display proteolysis); higher = more stable
Conditions: PBS, room temperature
Each item that follows carries a reported folding stability dG.
Express it in kcal/mol; write the number only.

W35Y | 0.894
T34E | 1.28
G33F | -0.159
N30V | 1.43
V28Y | 0.207
N31G | 0.546
R40M | 1.41
D25I | 1.76

The variant listed as R40W shows folding stability dG equal to 1.8

get_value(item= W19N , readout=folding stability dG) returns -0.826

In plain terms, Y4S has a documented folding stability dG of -0.488

Form: variant = N32F ; folding stability dG = 0.778

Value of folding stability dG reported for the variant E38R is 0.772

Briefly, folding stability dG measured for Y4Q : 0.276

# folding stability dG (variant: W19Y ) is 0.78

Value of measured folding stability dG for the entry D17F : 1.86

# folding stability dG (variant: L6H ) is 1.48

Reported folding stability dG of R27A : 1.42

Summary for this variant, R14A : folding stability dG is 1.36

Value of measured folding stability dG for the entry E16V : 2

Lookup result for D25Y ; measured folding stability dG: 1.27

GET /value?item= A15F &field=folding stability dG returns 1.85

Value of measured folding stability dG for the entry R20W : -0.078

Value of measured folding stability dG for the entry Y2V : 1.63
